Test Details: Cytotoxicity against mouse 3T3L1 cells assessed as cell viability at 20 ug/ml after 7 days relative to control
Assay type: cell-based
Condition: 3T3-L1 cells, read-out: Activity
Endpoint Name: viability at 168 h, 20 ug/ml (%)
Could you give me the number in %? Just the number is fine.

Can you share its viability at 168 h, 20 ug/ml? I mean this molecule: "CC1=C[C@@H]2[C@@H](C(C)C)[C@H](O)C=C(C(=O)O)[C@@H]2CC1"
79
